assayed.target: T1, glucose-dependent insulinotropic peptide (gastric inhibitory polypeptide) receptor (GIPR) (human, UniProt P48546 22-466)
T1 sequence (looked up): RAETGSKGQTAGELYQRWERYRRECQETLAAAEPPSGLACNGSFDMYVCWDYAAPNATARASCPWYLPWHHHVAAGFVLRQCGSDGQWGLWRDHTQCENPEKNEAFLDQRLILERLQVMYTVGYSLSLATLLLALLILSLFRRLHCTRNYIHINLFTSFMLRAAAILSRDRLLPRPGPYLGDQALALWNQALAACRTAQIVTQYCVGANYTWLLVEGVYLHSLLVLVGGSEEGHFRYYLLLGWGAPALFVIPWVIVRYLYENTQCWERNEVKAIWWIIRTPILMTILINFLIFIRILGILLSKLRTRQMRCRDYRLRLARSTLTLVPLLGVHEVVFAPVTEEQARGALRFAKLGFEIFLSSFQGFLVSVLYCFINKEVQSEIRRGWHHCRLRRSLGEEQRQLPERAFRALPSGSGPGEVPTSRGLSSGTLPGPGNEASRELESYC
protocol.summary: cell-based or functional assay
Starred links: 1 amine or outer side, 2 acyl side, 3 side chain; linkers in the order of their positions; H or OH if unused. Non-standard residues stand in square brackets, D forms with d. Groups on a side chain read outwards from the residue. Primed or numbered codes have the meaning given here. No end group written: not given here. *: point of attachment. Dodecanoyl(12-OPh(4-COOH)) = O=C(O)c1ccc(OCCCCCCCCCCCC(=O)*)cc1; γGlu = O=C(O)[C@H](CCC(=O)[*:2])N[*:1]; Stearoyl = CCCCCCCCCCCCCCCCCC(=O)*; Palmitoyl = CCCCCCCCCCCCCCCC(=O)*; αMeF = C[C@](N)(Cc1ccccc1)C(=O)O; αMeK = C[C@](N)(CCCCN)C(=O)O; Lauroyl = CCCCCCCCCCCC(=O)*; αMeS = C[C@](N)(CO)C(=O)O; PEG2′ = not defined here; Aib = CC(C)(N)C(=O)O
// reported cAMP Primary assay EC50 GIP-R (2nd) for each item listed
// return numeric value only (unit: nM, not printed)

Use the examples below as a reference point.
- binder: "H[Aib]EGS[αMeF]TSDV[αMeS]S[αMeF]LEGEAAK([PEG2′-PEG2′-γGlu-Palmitoyl])E[αMeF]IA[αMeF]VV[αMeK]GG-NH2 [SEQ ID NO 109]"
  val: 25.6
- binder: "H[Aib]EGS[αMeF]TSDV[αMeS]S[αMeF]LEGEAAK([PEG2′-Dodecanoyl(12-OPh(4-COOH))])E[αMeF]IA[αMeF]VV[αMeK]GG-NH2 [SEQ ID NO 143]"
  val: 27

QUERY: // fetch cAMP Primary assay EC50 GIP-R (2nd) given entry H[Aib]EGS[αMeF]TSDV[αMeS]S[αMeF]LEGEAAK([PEG2′-PEG2′-PEG2′-Dodecanoyl(12-OPh(4-COOH))])E[αMeF]IA[αMeF]VV[αMeK]GG-NH2 [SEQ ID NO 145]
RESULT: 25

QUERY: // fetch cAMP Primary assay EC50 GIP-R (2nd) given entry H[Aib]EGS[αMeF]TK([PEG2′-PEG2′-γGlu-Stearoyl])DV[αMeS]S[αMeF]LEGEAA[αMeK]E[αMeF]IA[αMeF]VV[αMeK]GG-NH2 [SEQ ID NO 121]
RESULT: 25.1

QUERY: // fetch cAMP Primary assay EC50 GIP-R (2nd) given entry H[Aib]EGS[αMeF]TSDV[αMeS]S[αMeF]LEGEAA[αMeK]E[αMeF]IA[αMeF]K([PEG2′-PEG2′-γGlu-Stearoyl])V[αMeK]GG-NH2 [SEQ ID NO 103]
RESULT: 25.2

QUERY: // fetch cAMP Primary assay EC50 GIP-R (2nd) given entry H[Aib]EGS[αMeF]TSDV[αMeS]S[αMeF]LEGEAA[αMeK]E[αMeF]IA[αMeF]VK([PEG2′-PEG2′-γGlu-Stearoyl])[αMeK]GG-NH2 [SEQ ID NO 102]
RESULT: 25.2

QUERY: // fetch cAMP Primary assay EC50 GIP-R (2nd) given entry H[Aib]EGS[αMeF]TSDV[αMeS]S[αMeF]LEGEAK([PEG2′-PEG2′-γGlu-Stearoyl])[αMeK]E[αMeF]IA[αMeF]VV[αMeK]GG-NH2 [SEQ ID NO 110]
RESULT: 25

QUERY: // fetch cAMP Primary assay EC50 GIP-R (2nd) given entry H[Aib]EGS[αMeF]TSDV[αMeS]S[αMeF]LEGEAAK([PEG2′-Lauroyl])E[αMeF]IA[αMeF]VV[αMeK]GG-NH2 [SEQ ID NO 134]
RESULT: 28

QUERY: // fetch cAMP Primary assay EC50 GIP-R (2nd) given entry H[Aib]EGS[αMeF]TSDVK([PEG2′-PEG2′-γGlu-Stearoyl])S[αMeF]LEGEAA[αMeK]E[αMeF]IA[αMeF]VV[αMeK]GG-NH2 [SEQ ID NO 118]
RESULT: 25.2
